ASSAY: Drug uptake in patient plasma at 20 mg/m2, iv administered for 1 hr as infusion measured 72 hrs post dose
Assay type: ADME, organism-based
RECORDED CONDITIONS: human
MEASURED ENDPOINT: concentration at 72 h
Reply with the number and its unit after it.

Which concentration at 72 h value belongs to CC(=O)O[C@@]12CO[C@@H]1C[C@H](O)[C@@]1(C)C(=O)[C@H](O)C3=C(C)[C@@H](OC(=O)[C@H](O)[C@@H](NC(=O)OC(C)(C)C)c4ccccc4)C[C@@](O)([C@@H](OC(=O)c4ccccc4)[C@H]21)C3(C)C [DOCETAXEL ANHYDROUS] ? 2.8 nM
